# Test system: PC3 prostate carcinoma cells
# Assay type: cell-based, human
# assaySetup: PC3, 1 h of treatment; read-out: IC50 ± SD, antiadhesive effect to vitronectin
# Protocol: A2780 human ovarian carcinoma and PC3 prostate carcinoma cells were grown in medium culture RPMI 1640 containing 10% fetal bovine serum and 50 μg/ml gentamycin sulfate. […] In 96-well tissue culture plates, 50 μl/well of a solution of vitronectin (5 μg/ml) were added for 2 h at room temperature. […] Tumour cells were counted after resuspension and added at an appropriate cellular density (40000-50000 cells/well). […]
measurementName: IC50 (µM)
Answers are plain numbers, in µM.

Which IC50 is listed for CC[C@@]1(O)C(=O)OCc2c1cc1n(c2=O)Cc2c-1nc1ccccc1c2C=NOCCNC(=O)OCc1ccc(NC(=O)[C@H](CCCNC(N)=O)NC(=O)[C@H](C)NC(=O)c2cn(CCOCCOCCOCCC(=O)N[C@@H](CCCNC(N)=O)C(=O)NCCOCCOCCOCCC(=O)NCc3ccc(C[C@@H]4NC(=O)[C@@H](Cc5ccccc5)NC(=O)[C@H](CC(=O)O)NC(=O)CNC(=O)[C@H](CCCNC(=N)N)NC4=O)cc3)nn2)cc1 [ST4215] ?
4.6

The measured values listed here are drawn from patent US20110160147A1.
